- assayedSystem: human PD-L1 expressed on cell surface (human, UniProt Q9NZQ7 19-290)
- Sequence (Q9NZQ7 19-290 limits assumed): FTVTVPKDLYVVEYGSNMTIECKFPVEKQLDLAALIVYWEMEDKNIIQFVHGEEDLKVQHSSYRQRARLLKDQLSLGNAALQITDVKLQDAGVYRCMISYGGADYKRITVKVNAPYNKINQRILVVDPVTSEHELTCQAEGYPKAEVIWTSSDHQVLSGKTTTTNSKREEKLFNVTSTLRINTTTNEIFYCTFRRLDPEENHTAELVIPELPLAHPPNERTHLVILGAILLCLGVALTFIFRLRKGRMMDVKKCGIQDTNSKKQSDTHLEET
- experimentalDetails: cell-based or functional assay
Each entry below lists one item and its recorded Internalization (%), FACS, 0.25 µg/ml, 4 h value.
Please respond with the number in % and leave the unit unwritten.

Example entries begin here.
So for 32E2 (antibody, human IgG1, V domains shown) VH: QEQLEESGGDLVKPEGSLTLTCTASGFSFSSSYYMSWVRQAPGMGLEWIASISGGVTDNAYYASWAKGRFTVSKTSSTTVTLQLTSLTAADTATYFCARDSSSGYFFLLWGPGTLVTVSS VL: LVMTQTPSSVSAAVGGTVTINCQASQNIYSNLAWYQQKPGQRPKLLIFGASNLRSGVPSRFKGSGSGTEYTLTISDLECADAATYYCQEGYSIGNVDNPFGGGTEVVVK , the logged Internalization (%), FACS, 0.25 µg/ml, 4 h turned out to be -25.9

Consider 62E6 (antibody, human IgG1, V domains shown) VH: QEQLEESGGDLVKPEGSLTLTCTASGFSFSGDYYMSWVRQAPGKGLEWIASIYTGSLNIYYATWAKGRFTISLTSSTTVTLQMTSLTAADTATYFCARRNKNADYGHFDLWGPGTLVTVSS VL: YDMTQTPASVEVAVGGTVTIKCQASQSINDRLAWYQQKPRQPPKLLIYGASTLASGVPSRFKGSGSGTEFTLTISDLECVDAATYYCQQGWTVSSLDNAFGGGTEVVAK . Its measured Internalization (%), FACS, 0.25 µg/ml, 4 h is 21

The binder listed as 33H7 (antibody, human IgG1, V domains shown) VH: QEQLVESGGGLVQPEGSLTVTCTASGFDLSRYFYMSWVRQAPGKGLEWIASISTGSDITDYASWAKGRFTISKTSSTTVTLQMTTLTAADTAIYFCARWTSGGGGFGLWGPGTLVTVSS VL: QVLTQTASPVSAAVGGTVTLNCQSSQSIYNNYLSWYQQRAGQPPKLLIYSTATLASGVPSRFKGSGSGTQFTLTISEIQCEDAATYYCQGYYSGYIWTFGGGTEVVVK shows Internalization (%), FACS, 0.25 µg/ml, 4 h equal to 12.3

***
Form: binder = 57B10 (antibody, human IgG1, V domains shown) VH: QEQLEESGGGLVQPEGSLTLTCTASGFSFSDDYYMSWVRQAPGKGLEWIASIYTGSLNTYYATWAKGRFTISLTSSTTVTLQMTSLTAADTATYFCARRNKNADWGHFDLWGPGTLVTVSS VL: YDMTQTPASVEVAVGGTVTIKCQASQSISTALAWYQQKPGQPPKLLIYAASTLASGVPSRFRGSGSGTDFTLTISDLECADAATYYCQQGWTVSSLDNAFGGGTEVVAM ; Internalization (%), FACS, 0.25 µg/ml, 4 h = 16.5

Reported Internalization (%), FACS, 0.25 µg/ml, 4 h of 28B3 (antibody, human IgG1, V domains shown) VH: QSVEESGGRLVTPGTPLTLSCTASGFSLSSYYMIWVRQAPGKGLEYIGYVYTGSGNTWYASWAKGRFAISKASTTVDLMITSPTTEDTATYFCASGADGVYDWGWDIWGPGTLVTVSL VL: DIVMTQTPASVEAAVGDTVTIKCQASQSIYSLLAWYQQKPGQRPKLLIAGASNLESGVPSRFSGSGSGTEYTLTISALECADAATYYCQNNYDSGRIYGLAFGGGTEVVVK : 17.6

Reference source for all entries: patent US20250171542A1
